Measured values drawn from paper PMC4957648 for this set.

# protocol_details: Solubility under Cif assay conditions
# Type: physicochemical
Recorded solubility by entry
measured_property: solubility

1) CCOC(=O)CC(=O)Nc1cc(Br)c(Oc2ccc(OC)c(C(C)C)c2)c(Br)c1 : 25 to 50 µM
2) CCOC(=O)CC(=O)Nc1cc(Br)c(Oc2cccc(C(C)C)c2)c(Br)c1 : 50 to 100 µM
3) CCOC(=O)CC(=O)Nc1cc(Cl)c(Oc2ccc(O)cc2)c(Cl)c1 : 50 to 100 µM

* * *

# protocol_details: Human liver microsomal stability
# Assay type: in vitro ADME
# particulars: liver microsomes
measured_property: half-life

1) CCC(=O)Nc1cc(Cl)c(Oc2ccc(O)c(-c3ccccc3)c2)c(Cl)c1 [Compound 8a] : > 1 h
